The compounds listed here are annotated with their inhibition at 10 µM.
target: recombinant human mPGES-1 (Homo sapiens); construct: made in house; host or cells: Rosetta E. coli (microsomal/membrane fraction); assay: mPGES-1 inhibition, HTRF detection of PGE2 (Biological Test); type: biochemical
Sequence (O14684 whole entry): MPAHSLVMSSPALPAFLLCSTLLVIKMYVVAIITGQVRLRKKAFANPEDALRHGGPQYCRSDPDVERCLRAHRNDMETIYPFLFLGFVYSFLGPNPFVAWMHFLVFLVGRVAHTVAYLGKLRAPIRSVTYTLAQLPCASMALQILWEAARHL
Report only the number, with the unit % understood.

Observe how each entry below is paired with its result.
compound="O=C(NCc1ccccc1C(F)(F)F)c1ccc2[nH]c(Nc3c(Cl)cncc3Cl)nc2c1 [Example 493]" assayed_target="recombinant human mPGES-1 (Homo sapiens)" quantity_unit=% measured=100
compound="Cc1ccnc(Cl)c1Nc1nc2ccc(C(=O)NC3CCC(C)(C)CC3)cc2[nH]1 [Example 531]" assayed_target="recombinant human mPGES-1 (Homo sapiens)" quantity_unit=% measured=93
compound="O=C(Nc1cc(C(F)F)c(F)cn1)c1cc2nc(Nc3c(Cl)cncc3Cl)[nH]c2cc1OCC(F)(F)F [Example 699]" assayed_target="recombinant human mPGES-1 (Homo sapiens)" quantity_unit=% measured=100
compound="CCOc1cc2[nH]c(Nc3c(Cl)cncc3Cl)nc2cc1C(=O)Nc1cc(C)cc(C(F)(F)F)n1 [Example 709]" assayed_target="recombinant human mPGES-1 (Homo sapiens)" quantity_unit=% measured=100
compound="O=C(NCc1ncccc1C(F)(F)F)c1ccc2[nH]c(Nc3c(Cl)cncc3Cl)nc2c1 [Example 565]" assayed_target="recombinant human mPGES-1 (Homo sapiens)" quantity_unit=% measured=84
compound="COc1cc2c(cc1C(=O)Nc1ccc(Br)cc1)nc(Nc1c(Cl)cncc1Cl)n2C [Example 679]" assayed_target="recombinant human mPGES-1 (Homo sapiens)" quantity_unit=% measured=100
compound="COc1cc2[nH]c(Nc3c(Cl)cncc3Cl)nc2cc1C(=O)Nc1cc(C(F)(F)F)ccn1 [Example 680]" assayed_target="recombinant human mPGES-1 (Homo sapiens)" quantity_unit=% measured=100

Continue with the compound presented below.
Inquiry: Which inhibition at 10 µM is listed for CN1CCC(Oc2cc3c(cc2C(=O)Nc2ccc(Br)cc2)nc(Nc2c(Cl)cncc2Cl)n3C)C1 (centres unmarked) [Example 662] ?
Reply text: 99

----------
target: recombinant human mPGES-1 (Homo sapiens); construct: made in house; host or cells: Rosetta E. coli (microsomal/membrane fraction); assay: mPGES-1 inhibition, HTRF detection of PGE2 (Biological Test); type: biochemical
readout_name: inhibition at 10 µM (%)
Report only the number, with the unit % understood.

compound=O=C(N[C@H]1CC[C@H](C(F)(F)F)CC1)c1cc2nc(Nc3c(Cl)cncc3Cl)[nH]c2cc1OCC(F)(F)F assayed_target="recombinant human mPGES-1 (Homo sapiens)" readout_name="inhibition at 10 µM" measured=100

Inquiry: Which inhibition at 10 µM is listed for Cn1c(Nc2c(Cl)cncc2Cl)nc2cc(C(=O)NCc3ccccc3C(F)(F)F)c(OC3CCOC3)cc21 (stereo not drawn) ?
Reply text: 99

Inquiry: Which inhibition at 10 µM is listed for `O=C(NCc1ncccc1C(F)F)c1cc2nc(Nc3c(Cl)cncc3Cl)[nH]c2cc1OCC(F)(F)F` ?
Reply text: 98

Inquiry: Which inhibition at 10 µM is listed for `CCOc1cc2c(cc1C(=O)Nc1ccc(Br)cc1)nc(Nc1c(Cl)cncc1Cl)n2CC(F)(F)F` ?
Reply text: 100

Inquiry: Which inhibition at 10 µM is listed for `CCOc1cc2[nH]c(Nc3c(Cl)cncc3Cl)nc2cc1C(=O)N[C@H]1CC[C@H](C(F)(F)F)CC1` ?
Reply text: 100

Inquiry: Which inhibition at 10 µM is listed for `CCOc1cc2[nH]c(Nc3c(Cl)cncc3Cl)nc2cc1C(=O)Nc1ccc(Br)cc1` ?
Reply text: 94

Inquiry: Which inhibition at 10 µM is listed for `COc1cc2[nH]c(Nc3c(Cl)cncc3Cl)nc2cc1C(=O)Nc1cc(C(F)(F)F)cc(N(C)C)n1` ?
Reply text: 95

Inquiry: Which inhibition at 10 µM is listed for `COc1cc2[nH]c(Nc3c(Cl)cncc3Cl)nc2cc1C(=O)Nc1cc(C(F)(F)F)cc(C)n1` ?
Reply text: 100

Inquiry: Which inhibition at 10 µM is listed for `Cn1c(Nc2c(Cl)cncc2Cl)nc2cc(C(=O)NC3CCCCC3)ccc21` ?
Reply text: 96
